- systemUnderTest: T1, AAV9 (adeno-associated virus 9, Assembled 60-mer capsid of VP1/VP2/VP3 (nested products of one cap gene), amine-coupled to a CM5 chip; the letters give one VP1 subunit only.)
- T1 construct: also called adeno-associated virus serotype 9
- testDescription: SPR, AAV amine-coupled to CM5 chip
endpoint: koff (s⁻¹)
Give the value, in units of s⁻¹, as a plain number.

The binder identified as A4-C7 (bispecific antibody) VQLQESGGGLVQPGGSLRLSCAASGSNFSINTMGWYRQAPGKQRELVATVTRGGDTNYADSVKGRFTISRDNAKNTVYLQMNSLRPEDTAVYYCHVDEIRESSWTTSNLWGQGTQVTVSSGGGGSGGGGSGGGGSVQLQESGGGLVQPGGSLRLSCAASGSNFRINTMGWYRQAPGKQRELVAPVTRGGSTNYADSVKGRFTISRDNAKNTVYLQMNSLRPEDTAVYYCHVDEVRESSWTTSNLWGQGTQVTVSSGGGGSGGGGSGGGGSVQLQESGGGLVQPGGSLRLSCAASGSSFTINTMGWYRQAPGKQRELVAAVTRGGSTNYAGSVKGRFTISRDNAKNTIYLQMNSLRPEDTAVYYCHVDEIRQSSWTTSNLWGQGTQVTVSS registered its koff at 1.75e-05
